Data provenance: patent US20240287110A1

- protocol: Determination of solubility in water at pH 7.4
- Assay type: physicochemical
- condition details: aqueous phosphate medium, aqueous buffer, thermodynamic from solid; pH 7.4, 25° C.
- Experimental: Reagents used were 0.2 M NaOH (SinoPharm lot No. 20180223) and 0.2 M phosphate (SinoPharm 20180910, pH 7.4). […] The example compounds were tested in an aqueous medium at 25° C. […] When equilibration was completed, the sample was removed from the shaker and the final pH was measured. […] The concentration of the sample was calculated based on a calibration curve of the compound.
property measured: solubility

>>> measured("CC1(C)CCC(CN2CCN(c3ccc(C(=O)NS(=O)(=O)c4ccc(NC[C@H]5COCCO5)c([N+](=O)[O-])c4)c(Oc4cc5ccnc-5n(COP(=O)(O)O)c4)c3)CC2)=C(c2ccc(C(F)(F)F)cc2Cl)C1 [Example 1]")
"19.4 mg/mL"
>>> measured("Cc1cc(C(F)(F)F)ccc1C1=C(CN2CCN(c3ccc(C(=O)NS(=O)(=O)c4ccc(NC[C@H]5COCCO5)c([N+](=O)[O-])c4)c(Oc4cc5ccnc-5n(COP(=O)(O)O)c4)c3)CC2)CCC(C)(C)C1 [Example 2]")
"2.23 mg/mL"
